- test.system: UniProt:P28335
- Sequence (P28335 whole entry): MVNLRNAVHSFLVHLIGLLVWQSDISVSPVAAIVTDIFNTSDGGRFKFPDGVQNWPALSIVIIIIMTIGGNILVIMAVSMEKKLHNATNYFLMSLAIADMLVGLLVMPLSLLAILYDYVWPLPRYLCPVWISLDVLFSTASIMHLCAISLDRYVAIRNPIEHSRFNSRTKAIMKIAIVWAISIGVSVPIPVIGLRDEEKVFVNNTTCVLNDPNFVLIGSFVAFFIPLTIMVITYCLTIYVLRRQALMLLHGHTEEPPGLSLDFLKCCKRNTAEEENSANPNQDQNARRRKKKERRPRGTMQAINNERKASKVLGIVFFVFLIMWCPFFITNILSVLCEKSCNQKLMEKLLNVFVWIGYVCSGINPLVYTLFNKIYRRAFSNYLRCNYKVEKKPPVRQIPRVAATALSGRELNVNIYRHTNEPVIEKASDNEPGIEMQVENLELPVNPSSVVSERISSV
pEC50: −log10 of the molar value.
reported.property: pEC50

> print(dat)
                          smiles.string  reported.property  readout.number
1           Cc1c(Cc2ccccc2)nnc2c1CCNCC2              pEC50            6.66
2        Clc1ccc(Cc2cc3c(nn2)CCNCC3)cc1              pEC50            6.51
3  FC(F)(F)c1cccc(Cc2cc3c(nn2)CCNCC3)c1              pEC50            6.12

(A) O=c1cc2c(nn1Cc1ccccc1)CCNCC2
(B) c1ccc(Cc2cc3c(nn2)CCNCC3)cc1
(C) O=c1[nH]c2c(nc1Cc1ccccc1)CCNCC2
Could you please sort these 3 entries by pEC50 from high to low? Thanks in advance for listing the labels in the requested order. A, C, B
